Origin of values: PubChem BioAssay (NCI)

System: MDA-MB-231 breast
Assay: NCI tumour cell line growth inhibition, 48 h; in the data active = GI50 below about 0.43 µM; inactive = the rest
Outcomes: YES (active), NO (inactive)

compound	classAssignment
O=C1c2cccnc2C(=O)c2c1c(C(=O)OCCCN1CCOCC1)c1ccccn21	NO
C/C(=C(/c1ccc(O)cc1)c1ccc(OCCN2CCCC2)cc1)c1ccccc1	NO
COC(=O)[C@H](Cc1ccccc1)NC(=O)c1csc([C@@H](C[C@H](C(C)C)N(C)C(=O)[C@@H](NC(=O)[C@H]2CCCCN2C)C2CC2)OC(C)=O)n1	YES
CC[C@@]1(OC(=O)CN)C(=O)OCc2c1cc1n(c2=O)Cc2cc3cc(N)ccc3nc2-1	NO
COc1cc[nH]c1/C=C1\C(=O)Nc2ccc(F)c(C#CC3(O)CCOCC3)c21	NO
N#CC1c2ccccc2-c2ccccc2N1C(=O)c1ccccc1 (stereo not given)	NO
Nc1ncnc2occ(-c3ccc(NC(=O)Nc4cc(C(F)(F)F)cc(C(F)(F)F)c4)cc3)c12	NO
Cc1nnc([S-])s1.[Au+].c1ccc([PH+](c2ccccc2)c2ccccc2)cc1	NO
COC(=O)C(C)N1C(=O)c2ccccc2I1OC(C)=O (stereo not given)	NO
Cc1ccc([P+](Cc2ccc([N+](=O)[O-])cc2)(c2ccc(C)cc2)c2ccc(C)cc2)cc1	NO
